# credit: patent US20240002375A1

test system: SMN2 CJ mRNA; test: Gene panel canonical junction qPCR splicing assay, SMN2; type: cell-based; conditions: Table 4, read-out: SMN2 IC50 (decrease in CJ mRNA levels)
# key: entry, value: IC50

CN1CCCC2(CCN2c2ccc3nc(-c4cc5cn(C)nc5cc4O)ccc3n2)C1 (centres unmarked); > 10000 nM
C[C@H]1C[C@@H](c2ccc3nc(-c4cc5cn(C)nc5cc4O)ccc3n2)CCN1 (relative stereo); < 100 nM
Cn1cc2cc(-c3ccc4cc(C5CCNCC5)ccc4n3)c(O)cc2n1; < 100 nM
Cc1c(O)c(-c2ccc3nc(N4CC[C@@H](NC5CC5)C4)ccc3n2)cc2cn(C)nc12 (single isomer, unassigned); < 100 nM

q: Dear colleague, I am looking for the recorded IC50 of the following compound: Cn1cc2cc(-c3ccc4nc(N5CCNC(C)(C)C5)ccc4n3)c(O)cc2n1
a: < 100 nM

====

system: SMN2 CJ mRNA; experiment: Gene panel canonical junction qPCR splicing assay, SMN2; type: cell-based; settings: Table 4, read-out: SMN2 IC50 (decrease in CJ mRNA levels)
quantity-name: IC50

See these solved cases before continuing.
Cn1cc2cc(-c3ccc4nc(C5CCNCC5)ccc4n3)c(F)cc2n1; 1000 to 10000 nM
Cn1cc2cc(-c3ccc4nc(N5CC[C@]67CCN[C@H]6CC[C@H]57)ccc4n3)c(O)cc2n1; < 100 nM
Cc1cc(=O)c2cc(O)c(-c3ccc4nc(N5CCC(NC(C)(C)C)C5)ccc4n3)cc2o1 (stereo not shown); > 10000 nM
Cn1cc2cc(-c3ccc4nc(N5CC[C@@H](NC6CC6)C5)ccc4n3)c(O)cc2n1; < 100 nM
Cn1cc2cc(-c3ccc4nc(N5CC[C@H](NCC6CC6)C5)ccc4n3)c(O)cc2n1; < 100 nM
Cn1cc2nc(-c3ccc4nc(C5CCNCC5)ccc4n3)c(F)cc2n1; 1000 to 10000 nM
Cn1cc2cc(-c3ccc4nc(N5CC(NC(C)(C)C)C5)ccc4n3)c(O)cc2n1; 1000 to 10000 nM
Cc1nc2c(C)c(O)c(-c3ccc4nc(N5CC[C@@H](NC(C)(C)C)C5)ccc4n3)cc2o1 (single isomer, unassigned); < 100 nM
Cc1nc2cc(O)c(-c3ccc4nc(N5CC[C@H](NC6CC6)C5)ccc4n3)cc2o1 (single isomer, unassigned); < 100 nM
Cn1cc2c(O)c(-c3cc4ccc(C5CCNCC5)nc4cn3)ccc2n1; 100 to 1000 nM

q: Value lookup for IC50; key = Cc1nc2cc(O)c(-c3ccc4nc(C5CCNCC5)ccc4n3)cc2o1
a: < 100 nM

q: Would you kindly repeat that for Cc1cn2nc(-c3ccc4nc(C5CCNCC5)ccc4n3)c(O)c2c(C)n1 ?
a: < 100 nM

q: Note, next up: O=C(NCc1ccn[nH]1)Nc1cc2nc(N3CCNCC3)ccc2cn1
a: > 10000 nM

q: Please give the result for CCNC1CCN(c2ccc3nc(-c4cc5cn(C)nc5cc4O)ccc3n2)CC1 too.
a: < 100 nM

q: And the next one, COc1cc2nn(C)cc2cc1-c1ccc2cc(C3CCNCC3)c(F)cc2n1 ?
a: > 10000 nM

q: Ok, now Cn1cc2cc(-c3ccc4nc(N5CC[C@H](NC6CCC6)C5)ccc4n3)c(O)cc2n1
a: < 100 nM

q: Same thing, different compound: Cn1cc2cc(-c3ccc4nc(N5CC[C@@H](NCC(F)(F)F)C5)ccc4n3)c(O)cc2n1 (stereo in doubt)
a: 1000 to 10000 nM

q: // next record Cc1cn2cc(-c3ccc4nc(N5CCC(NC(C)(C)C)C5)ccc4n3)nc(C)c2n1 (stereo not shown)
a: 1000 to 10000 nM
